assay: in vivo; conditions: female, nude, mouse, 3.7 MBq, total radioactivity, kidney uptake
metric-name: tissue uptake at 1 h (%ID/g)
State the answer as a number, implicitly in %ID/g.

[Q] Write down tissue uptake at 1 h measured for item N=C(N)NCCC[C@@H]1NC(=O)[C@H](CCCCNC(=O)CC[C@H](NC(=S)Nc2ccc(C[C@H]3CN(CC(=O)O)CCN(CC(=O)O)CCN3CC(=O)O)cc2)C(=O)NCCCC[C@@H]2NC(=O)[C@@H](Cc3ccc(O)cc3)NC(=O)[C@H](CC(=O)O)NC(=O)CNC(=O)[C@H](CCCNC(=N)N)NC2=O)NC(=O)[C@@H](Cc2ccc(O)cc2)NC(=O)[C@H](CC(=O)O)NC(=O)CNC1=O [^68Ga-NOTA-RGD2, metal not drawn]
[A] 4.3

* * *

assay: in vivo; conditions: athymic nude, mouse, iv, 3.7 MBq, total radioactivity, kidney uptake
metric-name: tissue uptake at 1 h (%ID/g)
State the answer as a number, implicitly in %ID/g.

[Q] Write down tissue uptake at 1 h measured for item N=C(N)NCCC[C@@H]1NC(=O)[C@H](CCCCNC(=O)CC[C@H](NC(=S)Nc2ccc(C[C@H]3CN(CC(=O)O)CCN(CC(=O)O)CCN3CC(=O)O)cc2)C(=O)NCCCC[C@@H]2NC(=O)[C@@H](Cc3ccc(O)cc3)NC(=O)[C@H](CC(=O)O)NC(=O)CNC(=O)[C@H](CCCNC(=N)N)NC2=O)NC(=O)[C@@H](Cc2ccc(O)cc2)NC(=O)[C@H](CC(=O)O)NC(=O)CNC1=O [^68Ga-NOTA-RGD2, metal not drawn]
[A] 2

* * *

test: in vivo; settings: athymic nude, mouse, iv, 3.7 MBq, total radioactivity, U87MG tumor uptake
metric-name: tissue uptake at 0.5 h
Write your answer as a measured quantity: the number, then the unit.

N=C(N)NCCC[C@@H]1NC(=O)[C@H](CCCCNC(=S)Nc2ccc(C[C@H]3CN(CC(=O)O)CCN(CC(=O)O)CCN3CC(=O)O)cc2)NC(=O)[C@@H](Cc2ccc(O)cc2)NC(=O)[C@H](CC(=O)O)NC(=O)CNC1=O [^68Ga-NOTA-RGD1, metal not drawn] : 1.9 %ID/g

[Q] Write down tissue uptake at 0.5 h measured for item N=C(N)NCCC[C@@H]1NC(=O)[C@H](CCCCNC(=O)CC[C@H](NC(=S)Nc2ccc(C[C@H]3CN(CC(=O)O)CCN(CC(=O)O)CCN3CC(=O)O)cc2)C(=O)NCCCC[C@@H]2NC(=O)[C@@H](Cc3ccc(O)cc3)NC(=O)[C@H](CC(=O)O)NC(=O)CNC(=O)[C@H](CCCNC(=N)N)NC2=O)NC(=O)[C@@H](Cc2ccc(O)cc2)NC(=O)[C@H](CC(=O)O)NC(=O)CNC1=O [^68Ga-NOTA-RGD2, metal not drawn]
[A] 2.6 %ID/g

* * *

test: in vivo; conditions: athymic nude, mouse, iv, 3.7 MBq, total radioactivity, U87MG tumor uptake
metric-name: tissue uptake at 1 h (%ID/g)
State the answer as a number, implicitly in %ID/g.

N=C(N)NCCC[C@@H]1NC(=O)[C@H](CCCCNC(=O)CC[C@H](NC(=S)Nc2ccc(C[C@H]3CN(CC(=O)O)CCN(CC(=O)O)CCN3CC(=O)O)cc2)C(=O)NCCCC[C@@H]2NC(=O)[C@@H](Cc3ccc(O)cc3)NC(=O)[C@H](CC(=O)O)NC(=O)CNC(=O)[C@H](CCCNC(=N)N)NC2=O)NC(=O)[C@@H](Cc2ccc(O)cc2)NC(=O)[C@H](CC(=O)O)NC(=O)CNC1=O [^68Ga-NOTA-RGD2, metal not drawn] : 2.8

[Q] Write down tissue uptake at 1 h measured for item N=C(N)NCCC[C@@H]1NC(=O)[C@H](CCCCNC(=S)Nc2ccc(C[C@H]3CN(CC(=O)O)CCN(CC(=O)O)CCN3CC(=O)O)cc2)NC(=O)[C@@H](Cc2ccc(O)cc2)NC(=O)[C@H](CC(=O)O)NC(=O)CNC1=O [^68Ga-NOTA-RGD1, metal not drawn]
[A] 1.4
